Test system: Bacillus subtilis BS01
Assay: Antibacterial assay, micro broth dilution
Assay type: cell-based
Conditions: BS01, micro broth dilution, LB medium, 24 hours at 37 °C, read-out: Antibacterial Activity (MIC) B. subtilis
Method: The micro broth dilution method was used to evaluate the antibacterial activities of compounds 1–19 against the growth of eight common pathogens: Bacillus subtilis BS01, Micrococcus luteus, Escherichia coli ATCC 25922, Staphylococcus aureus ATCC 6538, S. aureus MRSA, Streptococcus agalactiae ATCC 13813, S. iniae, and Pseudomonas aeruginosa ATCC 9027 in 96-well polystyrene plates. […] The MICs were determined after 24 hours’ incubation at 37 °C with the tested compounds.
Consider the following molecules and their measured MIC readings.

- STRUCTURE_NOTATION: "CS[C@@]12CC3=COC=C[C@H](OC(C)=O)[C@H]3N1C(=O)[C@]1(SC)CC3=COC=C[C@H](OC(C)=O)[C@H]3N1C2=O"
  TARGET_OF_ASSAY: "Bacillus subtilis BS01"
  MIC: "> 80 µg/mL"
- STRUCTURE_NOTATION: "CS[C@@]1(Cc2ccccc2)NC(=O)[C@@](Cc2ccccc2)(SC)NC1=O"
  TARGET_OF_ASSAY: "Bacillus subtilis BS01"
  MIC: "> 80 µg/mL"
- STRUCTURE_NOTATION: "CS[C@@]12CC3=CC=C[C@H](OC(C)=O)[C@H]3N1C(=O)[C@]1(SC)CC3=COC=C[C@H](OC(C)=O)[C@H]3N1C2=O"
  TARGET_OF_ASSAY: "Bacillus subtilis BS01"
  MIC: "> 80 µg/mL"
- STRUCTURE_NOTATION: "CS[C@@]1(Cc2ccccc2)NC(=O)[C@H](Cc2ccccc2)NC1=O"
  TARGET_OF_ASSAY: "Bacillus subtilis BS01"
  MIC: "> 80 µg/mL"
